We begin with a simple list: items and their reported CO2 permeability.
Note: unit Barrer is implicit; provide only the numeric part.

Example compounds with recorded CO2 permeability:
*c1c(C)c(C)c(N2C(=O)c3ccc(Oc4cc(C(C)(C)C)cc(C)c4Oc4ccc5c(c4)C(=O)N(*)C5=O)cc3C2=O)c(C)c1C (repeat unit); 67
*C(=C(*)c1ccc([Si](C)(C)CCCCCCCC)cc1)c1ccc(C(C)(C)C)cc1 (repeat unit); 100
*CC(*)O (repeat unit); 1.2e-06
*c1ccc2c(c1)Oc1ccc(C3(c4ccc5c(c4)Oc4ccc(*)cc4O5)c4ccccc4-c4ccccc43)cc1O2 (repeat unit); 26.6

Task item: Consider the compound *OCC(*)CCl (repeat unit) and give its measured CO2 permeability.
Reply: 8

###

We begin with a simple list: items and their reported H2 permeability.
Note: unit Barrer is implicit; provide only the numeric part.

Example compounds with recorded H2 permeability:
*CN1CN(*)c2cc3c(cc21)C1(C)CCC3(C)c2cc(*)c(*)cc21 (repeat unit); 4440
*c1ccc(C(c2ccc(N3C(=O)c4ccc(C(=O)c5ccc6c(c5)C(=O)N(*)C6=O)cc4C3=O)cc2)(C(F)(F)F)C(F)(F)F)cc1 (repeat unit); 30.8
*/C(C)=C(/*)[Si](C)(C)c1ccccc1 (repeat unit); 14

Consider now this further compound.
Task item: Consider the compound *c1ccc(Oc2ccc(C(c3ccc(Oc4ccc(N5C(=O)c6ccc(-c7ccc8c(c7)C(=O)N(*)C8=O)cc6C5=O)cc4C(F)(F)F)cc3)(C(F)(F)F)C(F)(F)F)cc2)c(C(F)(F)F)c1 (repeat unit) and give its measured H2 permeability.
Reply: 30.6

###

We begin with a simple list: items and their reported O2 permeability.
State the result as a value with its unit after it.

*Oc1ccc(C2(c3ccc(Oc4ccc(S(=O)(=O)c5ccc(*)cc5)cc4)c(C)c3)OC(=O)c3ccccc32)cc1C (repeat unit); 0.868 Barrer
*OC(=O)Oc1c(Cl)cc(C(C)(C)c2cc(Cl)c(*)c(Cl)c2)cc1Cl (repeat unit); 2.29 Barrer
*Oc1ccc(S(=O)(=O)c2ccc(Oc3c(C)cc(C(C)(C)c4cc(C)c(*)c(C)c4)cc3C)cc2C(O)(C(F)(F)F)C(F)(F)F)c(C(O)(C(F)(F)F)C(F)(F)F)c1 (repeat unit); 8.5 Barrer
*Oc1ccc(-c2c(-c3ccc(C)cc3)c(-c3ccc(C)cc3)c(-c3ccc4c(c3)Oc3c(C#N)c(*)c(*)c(C#N)c3O4)c(-c3ccc(C)cc3)c2-c2ccc(C)cc2)cc1O* (repeat unit); 256 Barrer

Consider now this further compound.
Task item: Consider the compound *c1ccc(Oc2ccc(N3C(=O)c4cc(Oc5ccc(C)cc5)c(-c5cc6c(cc5Oc5ccc(C)cc5)C(=O)N(*)C6=O)cc4C3=O)cc2)cc1 (repeat unit) and give its measured O2 permeability.
Reply: 4.99 Barrer

###

We begin with a simple list: items and their reported log10(CO2 permeability).
Values below are the log10 of the recorded CO2 permeability, with Barrer as the unit.

*Oc1ccc(S(=O)(=O)c2ccc(Oc3ccc(C4(c5ccc(*)c(C)c5)CCCCC4)cc3C)cc2)cc1 (repeat unit); 0.15
*Oc1cc2c(cc1O*)C1(c3cc(C)ccc3-2)c2cc(C)ccc2-c2cc3c(cc21)Oc1c(C#N)c(*)c(*)c(C#N)c1O3 (repeat unit); 3.93
*c1c(C)c(C)c(N2C(=O)c3ccc(Oc4cc(C(C)(C)C)ccc4Oc4ccc5c(c4)C(=O)N(*)C5=O)cc3C2=O)c(C)c1C (repeat unit); 1.85

Task item: Consider the molecule *C/C=C(/Cl)C* (repeat unit) and give its measured log10(CO2 permeability).
Reply: 1.41

Task item: Consider the molecule *c1cccc(N2C(=O)c3ccc(C(c4ccc5c(c4)C(=O)N(*)C5=O)(C(F)(F)F)C(F)(F)F)cc3C2=O)c1 (repeat unit) and give its measured log10(CO2 permeability).
Reply: 0.99

Task item: Consider the molecule *C(=C(*)c1ccc2c(c1)C(C)(C)c1ccccc1-2)c1ccc(Br)cc1 (repeat unit) and give its measured log10(CO2 permeability).
Reply: 4.23

Task item: Consider the molecule */C(C)=C(/*)[Si](C)(C)c1ccccc1 (repeat unit) and give its measured log10(CO2 permeability).
Reply: 1.58

###

We begin with a simple list: items and their reported H2 permeability.
Note: unit Barrer is implicit; provide only the numeric part.

*Oc1c(C)cc(C(C)(C)c2cccc(C(C)(C)c3cc(C)c(Oc4ccc(S(=O)(=O)c5ccc(*)cc5)cc4)c(C)c3)c2)cc1C (repeat unit); 20
*CC(*)c1ccc(C[Si](C)(C)C)cc1 (repeat unit); 54
*c1c(C)cc(-c2cc(C)c(N3C(=O)c4cc5c(cc4C3=O)C3(C)CCC5(C)c4cc5c(cc43)C(=O)N(*)C5=O)c3ccccc23)c2ccccc12 (repeat unit); 3420
*CC(*)(C)C(=O)OC (repeat unit); 4.1
*Nc1ccc(C(c2ccc(NC(=O)c3cc(C(*)=O)cc(-c4ccccc4)c3)cc2)(C(F)(F)F)C(F)(F)F)cc1 (repeat unit); 42

Task item: Consider the compound *c1ccc(N2C(=O)c3ccc(C(=O)Oc4ccc(C(c5ccc(OC(=O)c6ccc7c(c6)C(=O)N(*)C7=O)cc5)(C(F)(F)F)C(F)(F)F)cc4)cc3C2=O)cc1 (repeat unit) and give its measured H2 permeability.
Reply: 4.36

Task item: Consider the compound *c1cc(C(c2ccc(O)c(N3C(=O)c4cc5c(cc4C3=O)C3(C)c4ccccc4C5(C)c4cc5c(cc43)C(=O)N(*)C5=O)c2)(C(F)(F)F)C(F)(F)F)ccc1O (repeat unit) and give its measured H2 permeability.
Reply: 83.5

###

measured.endpoint: H2 permeability (Barrer)
Note: unit Barrer is implicit; provide only the numeric part.

Example molecules with recorded H2 permeability:
*OC1OC(CO[N+](=O)[O-])C(OC2OC(O[N+](=O)[O-])C(O*)C(O)C2O[N+](=O)[O-])C(O)C1O[N+](=O)[O-] (repeat unit); 2
*c1ccc2c(-c3c(OC(C)=O)ccc4cc(N5C(=O)c6ccc(C(=O)c7ccc8c(c7)C(=O)N(*)C8=O)cc6C5=O)ccc34)c(OC(C)=O)ccc2c1 (repeat unit); 4.67
*C(=C(*)c1ccc2c(ccc3ccccc32)c1)c1ccc([Si](C)(C)C)cc1 (repeat unit); 900
*c1ccc(C2(c3ccc(*)cc3)OC(=O)c3ccccc32)cc1 (repeat unit); 74
*c1ccc(N2C(=O)c3ccc([Si](C)(C)c4ccc5c(c4)C(=O)N(*)C5=O)cc3C2=O)cc1 (repeat unit); 9.4
*Oc1cc2c(cc1O*)C1(c3ccccc3-2)c2ccccc2-c2cc3c(cc21)Oc1c(C#N)c(*)c(*)c(C#N)c1O3 (repeat unit); 4520
*CC(*)C(=O)OCCCCCCCCCCCCCC (repeat unit); 96.2

Consider now this further molecule.
Task item: Consider the molecule *CC(*)OC(C)=O (repeat unit) and give its measured H2 permeability.
Reply: 9.19

###

measured.endpoint: CO2 permeability (Barrer)
Note: unit Barrer is implicit; provide only the numeric part.

Example compounds with recorded CO2 permeability:
*Oc1ccc(C(c2ccc(Oc3ccc(C(=O)c4ccc(C(c5ccc(C(=O)c6ccc(*)cc6)cc5)(C(F)(F)F)C(F)(F)F)cc4)cc3)cc2)(C(F)(F)F)C(F)(F)F)cc1 (repeat unit); 11.5
*/C(C)=C(/*)[Si](C)(C)CC (repeat unit); 4600
*c1ccc(-c2ccc(C(*)(c3ccccc3)C(F)(F)F)cc2)cc1 (repeat unit); 166

Task item: Consider the compound *Oc1ccc(C(C)(C)c2ccc(Oc3ccc(S(=O)(=O)c4ccc(*)cc4)cc3)cc2)cc1 (repeat unit) and give its measured CO2 permeability.
Reply: 5.6

Task item: Consider the compound *Oc1c(C)cc(C(C)(C)c2cc(C)c(OC(=O)c3cccc(C(*)=O)c3)c(C)c2)cc1C (repeat unit) and give its measured CO2 permeability.
Reply: 12

Task item: Consider the compound *c1ccc(C(C)(C)c2ccc(-n3c(=O)c4cc5c(=O)n(*)c(=O)c5cc4c3=O)cc2)cc1 (repeat unit) and give its measured CO2 permeability.
Reply: 26.9

Task item: Consider the compound */C=C/C1CC(*)CC1[Si](C)(C)C (repeat unit) and give its measured CO2 permeability.
Reply: 89

Task item: Consider the compound *c1ccc(Cc2ccc(N3C(=O)c4cc(Oc5ccccc5)c(-c5cc6c(cc5Oc5ccccc5)C(=O)N(*)C6=O)cc4C3=O)cc2)cc1 (repeat unit) and give its measured CO2 permeability.
Reply: 29

Task item: Consider the compound *c1cc2c(cc1O)C1(CC2(C)C)CC(C)(C)c2cc(N3C(=O)C4C5C=CC(C6C(=O)N(*)C(=O)C56)C4C3=O)c(O)cc21 (repeat unit) and give its measured CO2 permeability.
Reply: 130

###

measured.endpoint: N2 permeability (Barrer)
Note: unit Barrer is implicit; provide only the numeric part.

Task item: Consider the compound *c1ccc2c(c1)-c1nc3ccc(-c4ccc5c(c4)nc4n5C(=O)c5cc(C(c6ccc7c(c6)C(=O)N(c6cc(C(c8ccc(O)c(N9C(=O)c%10ccc(C(*)(C(F)(F)F)C(F)(F)F)cc%10C9=O)c8)(C(F)(F)F)C(F)(F)F)ccc6O)C7=O)(C(F)(F)F)C(F)(F)F)ccc5-4)cc3n1C2=O (repeat unit) and give its measured N2 permeability.
Reply: 0.53

Task item: Consider the compound *Nc1ccc(C(c2ccc(NC(=O)c3cc(C(*)=O)cc(-c4ccccc4)c3)cc2)(C(F)(F)F)C(F)(F)F)cc1 (repeat unit) and give its measured N2 permeability.
Reply: 1.2

Task item: Consider the compound *CC(*)(C)C(=O)OC (repeat unit) and give its measured N2 permeability.
Reply: 0.0113

Task item: Consider the compound *=CC1CC(C=*)C2C(=O)N(C3CCCCC3)C(=O)C12 (repeat unit) and give its measured N2 permeability.
Reply: 0.52

Task item: Consider the compound *c1c(C)c(C)c(N2C(=O)c3ccc(Oc4c(C)cccc4Oc4ccc5c(c4)C(=O)N(*)C5=O)cc3C2=O)c(C)c1C (repeat unit) and give its measured N2 permeability.
Reply: 0.83

Task item: Consider the compound *c1ccc2c(-c3c(OC(C)=O)ccc4cc(N5C(=O)c6ccc(Oc7ccc8c(c7)C(=O)N(*)C8=O)cc6C5=O)ccc34)c(OC(C)=O)ccc2c1 (repeat unit) and give its measured N2 permeability.
Reply: 0.1
